Values were extracted from paper PMC9148403.

Target: mTOR (Homo sapiens, UniProt P42345)
Form field: pIC50 (one value per entry).
Quick note: pIC50 values are minus log10 of concentrations in mol/L.

Example compounds with recorded pIC50:
{"columns": ["compound", "pIC50"],
 "data": [
  ["COc1ccc(N2CCN(Cc3ccc(C(=O)Nc4nc(C)nc(Nc5nccc(-c6nccs6)n5)n4)cc3)CC2)cc1 [Compound 8f]", 6.08],
  ["Cc1nc(NC(=O)c2ccc(CN3CCN(c4ccc(Cl)cc4)CC3)cc2)nc(Nc2nccc(-c3nccs3)n2)n1 [Compound 8a]", 6.46],
  ["Cc1nc(NC(=O)c2ccc(CN3CCN(c4ccc(Br)cc4)CC3)cc2)nc(Nc2nccc(-c3nccs3)n2)n1 [Compound 8b]", 6.41],
  ["Cc1nc(NC(=O)c2ccc(CN3CCN(c4ccc([N+](=O)[O-])cc4)CC3)cc2)nc(Nc2nccc(-c3nccs3)n2)n1 [Compound 8d]", 6.38],
  ["Cc1nc(NC(=O)c2ccc(CN3CCN(c4ccc(O)cc4)CC3)cc2)nc(Nc2nccc(-c3nccs3)n2)n1 [Compound 8e]", 6.34]
]}

The compound listed as Cc1ccc(N2CCN(Cc3ccc(C(=O)Nc4nc(C)nc(Nc5nccc(-c6nccs6)n5)n4)cc3)CC2)cc1 [Compound 8c] shows pIC50 equal to 6.31

###

Biological target: PI3K
Assay: PI3K luminescent kinase assay (Promega)
Conditions: read-out: Kinase inhibition IC50 PI3K
Form field: pIC50 (one value per entry).
Quick note: pIC50 values are minus log10 of concentrations in mol/L.

Example compounds with recorded pIC50:
{"columns": ["smiles-record", "pIC50"],
 "data": [
  ["Cc1nc(NC(=O)c2ccc(CN3CCN(c4ccc([N+](=O)[O-])cc4)CC3)cc2)nc(Nc2nccc(-c3nccs3)n2)n1", 6.04],
  ["COc1ccc(N2CCN(Cc3ccc(C(=O)Nc4nc(C)nc(Nc5nccc(-c6nccs6)n5)n4)cc3)CC2)cc1", 5.90],
  ["Cc1ccc(N2CCN(Cc3ccc(C(=O)Nc4nc(C)nc(Nc5nccc(-c6nccs6)n5)n4)cc3)CC2)cc1", 6.01],
  ["Cc1nc(NC(=O)c2ccc(CN3CCN(c4ccc(Br)cc4)CC3)cc2)nc(Nc2nccc(-c3nccs3)n2)n1", 6.05],
  ["Cc1nc(NC(=O)c2ccc(CN3CCN(c4ccc(O)cc4)CC3)cc2)nc(Nc2nccc(-c3nccs3)n2)n1", 6.01]
]}

Here is another compound to look at.
The compound listed as Cc1nc(NC(=O)c2ccc(CN3CCN(c4ccc(Cl)cc4)CC3)cc2)nc(Nc2nccc(-c3nccs3)n2)n1 shows pIC50 equal to 6.10

###

System: KU812
Test: Cellular antiproliferation assay (CCK-8), KU812
Assay type: cell-based, human
Settings: KU812 cells, read-out: Cell growth inhibition IC50 KU812
attribute-measured: pIC50
Quick note: pIC50 values are minus log10 of concentrations in mol/L.

{"columns": ["smiles-record", "attribute-measured", "measurement"],
 "data": [
  ["Cc1nc(NC(=O)c2ccc(CN3CCN(c4ccc(Br)cc4)CC3)cc2)nc(Nc2nccc(-c3nccs3)n2)n1", "pIC50", 6.08],
  ["COc1ccc(N2CCN(Cc3ccc(C(=O)Nc4nc(C)nc(Nc5nccc(-c6nccs6)n5)n4)cc3)CC2)cc1", "pIC50", 5.91],
  ["Cc1nc(NC(=O)c2ccc(CN3CCN(c4ccc(O)cc4)CC3)cc2)nc(Nc2nccc(-c3nccs3)n2)n1", "pIC50", 5.94],
  ["Cc1ccc(N2CCN(Cc3ccc(C(=O)Nc4nc(C)nc(Nc5nccc(-c6nccs6)n5)n4)cc3)CC2)cc1", "pIC50", 5.99],
  ["Cc1nc(NC(=O)c2ccc(CN3CCN(c4ccc(Cl)cc4)CC3)cc2)nc(Nc2nccc(-c3nccs3)n2)n1", "pIC50", 6.14]
]}

The compound listed as Cc1nc(NC(=O)c2ccc(CN3CCN(c4ccc([N+](=O)[O-])cc4)CC3)cc2)nc(Nc2nccc(-c3nccs3)n2)n1 shows pIC50 equal to 6.02
